Protocol Text: MDR1-MDCK effective efflux assay (Transwell, 10 μM, 1 hour), wild-type MDCK cells
Assay type: in vitro ADME
Settings: dog, MDCK, pH 7.4, Papp AB WT
For each entry below, report its Papp A→B at 1 h, 10 μM value.

Look over these answered cases.
Compound: CC(C)OC(=O)N1Cc2cc(Cl)ccc2-n2c(C3CC4(C3)CN(c3ncccn3)C4)nnc2C1C (stereo not shown) [compound 167]
Papp A→B at 1 h, 10 μM: > 200 nm/s

Compound: COC(=O)N1Cc2cc(Cl)ccc2-n2c(nnc2C2CC3(C2)CN(C(=O)C2CC2)C3)C1 [compound 162]
Papp A→B at 1 h, 10 μM: < 70 nm/s

Compound: CCC(=O)N1Cc2cc(Cl)ccc2-n2c(nnc2C2CC3(C2)CN(c2ccccn2)C3)C1 [compound 67]
Papp A→B at 1 h, 10 μM: > 200 nm/s

Compound: CCC(=O)N1Cc2cc(Cl)ccc2-n2c(nnc2C2CC3(C2)CN(c2cnccn2)C3)C1 [compound 110]
Papp A→B at 1 h, 10 μM: 100 to 200 nm/s

Compound: CC(=O)N1Cc2cc(Cl)ccc2-n2c(nnc2C2CC3(C2)CN(c2cnccn2)C3)C1 [compound 93]
Papp A→B at 1 h, 10 μM: < 70 nm/s

Dear colleague, could you please provide Papp A→B at 1 h, 10 μM for the compounds listed below?
1. COC(=O)N1Cc2cc(Cl)ccc2-n2c(nnc2C2CC3(C2)CN(c2ncc(F)cn2)C3)C1 [compound 92]
2. CC1c2nnc(C3CC4(C3)CN(c3ccc(F)cn3)C4)n2-c2ccc(Cl)cc2CN1C (stereo not shown) [compound 179]
3. O=C(C1COC1)N1Cc2cc(Cl)ccc2-n2c(nnc2C2CC3(C2)CN(c2ccc(F)cn2)C3)C1 [compound 160]

OUT:
> 200 nm/s
> 200 nm/s
< 70 nm/s

Dear colleague, could you please provide Papp A→B at 1 h, 10 μM for the compounds listed below?
1. CC1c2nnc(C3CC4(C3)CN(c3ccc(F)cn3)C4)n2-c2ccc(Cl)cc2CN1C(=O)C(F)F (stereo not shown) [compound 176]
2. O=C(N1Cc2cc(Cl)ccc2-n2c(nnc2C2CC3(C2)CN(c2ccc(F)cn2)C3)C1)C1(F)CC1 [compound 156]
3. CN1Cc2cc(Cl)ccc2-n2c(nnc2C2CC3(C2)CN(C(=O)C2(F)CC2)C3)C1 [compound 36]
4. CC1c2nnc(C3CC4(C3)CN(c3ncc(F)cn3)C4)n2-c2ccc(Cl)cc2CN1C(=O)OC(CF)CF (stereo not shown) [compound 194]
5. CN1Cc2cc(Cl)ccc2-n2c(nnc2C2CC3(C2)CN(c2ccc(F)cn2)C3)C1 [compound 1]

OUT:
["> 200 nm/s", "> 200 nm/s", "100 to 200 nm/s", "100 to 200 nm/s", "> 200 nm/s"]

// provenance: patent US11186577B2
